Biological target: T1, Mcl-1, Q07820
T1 chain: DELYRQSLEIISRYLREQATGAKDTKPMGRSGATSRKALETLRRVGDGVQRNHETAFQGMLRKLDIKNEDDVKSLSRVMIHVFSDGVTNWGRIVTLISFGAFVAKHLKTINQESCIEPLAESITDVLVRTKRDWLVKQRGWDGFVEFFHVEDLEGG
Test: peptide SPOT array, c-Myc-tagged receptor at 1 uM or 100 nM, anti-c-Myc-Cy3
Entries whose SPOT signal as a fraction of Bim BH3's signal on the same receptor and array is below 0.04 take label 1; entries at or above 0.04 take label 0.

Examples from the recorded data:
Binder: VFDDLRGSVSLSWVLDSTGVILVLTT [SORT1]
Category Label: label 1

Binder: NNNMDVESRTMATMLDTLASRGLLDA [SEC16A]
Category Label: label 1

Binder: GYPFNDVCQWFIDRADLIFVVFDPTK [SRL]
Category Label: label 0

Binder: AIKPVSFIRDLKKIARHFRFGNQEDA [USP36]
Category Label: label 0

Binder: AASDFRTSVVLNHLAEKWFPGQRERA [LONRF1]
Category Label: label 0

Binder: GADHPDVAKQLNNLALLCQNQGKFED [KLC3]
Category Label: label 1

Binder: AFTEREASEIMKSILEAIQYLHSINI [MAPKAPK2]
Category Label: label 1

Binder: FDHMVPLVEEINRLADELNPLNASQE [C7orf26]
Category Label: label 1

Problem: Hello, is SPOT signal as a fraction of Bim BH3's signal on the same receptor and array of the following binder strictly smaller than 0.04? FKAWGKFGGAFCRYLDEMKEIQERQR [PURB]
Result: label 0

Problem: Quick one: RQAFYLHTTKLTRIARRLCREILRPW [MTA1]
Result: label 0
